# Tested Target: CTLA4 (human)
# Sequence (chain, as listed by the source): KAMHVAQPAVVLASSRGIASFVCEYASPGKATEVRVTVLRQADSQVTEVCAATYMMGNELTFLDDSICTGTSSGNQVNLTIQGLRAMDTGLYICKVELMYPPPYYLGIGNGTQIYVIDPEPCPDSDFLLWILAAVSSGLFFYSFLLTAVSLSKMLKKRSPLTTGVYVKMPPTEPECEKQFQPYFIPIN
# Assay Overview: flow cytometry, CHO cells stably expressing CTLA4
Each entry below carries its recorded MFI at 33.3 nM.
Report only the number, with the unit MFI understood.

Some solved entries appear below for comparison.
CD80 variant E7D/E35D/M47I/L97Q IgV-Fc (Fc fusion) VIHVTKDVKEVATLSCGHNVSVEELAQTRIYWQKDKKMVLTMMSGDINIWPEYKNRTIFDITNNLSIVILALRPSDEGTYECVVLKYEKDAFKREHQAEVT
271000
CD80 variant Q33L/E35D/M47I/T62N/L85Q IgV-Fc (Fc fusion) VIHVTKEVKEVATLSCGHNVSVEELAQTRIYWLKDKKMVLTMMSGDINIWPEYKNRTIFDINNNLSIVILALRPSDEGTYECVVQKYEKDAFKREHLAEVT
1660
CD80 variant Q33L/E35D/T41S/M47V IgV-Fc (Fc fusion) VIHVTKEVKEVATLSCGHNVSVEELAQTRIYWLKDKKMVLSMMSGDVNIWPEYKNRTIFDITNNLSIVILALRPSDEGTYECVVLKYEKDAFKREHLAEVT
14500

// next entry
Query block: If you can, please state the reported MFI at 33.3 nM value of CD80 variant Q33L/E35D/M47I IgV-Fc (Fc fusion) VIHVTKEVKEVATLSCGHNVSVEELAQTRIYWLKDKKMVLTMMSGDINIWPEYKNRTIFDITNNLSIVILALRPSDEGTYECVVLKYEKDAFKREHLAEVT .
Result block: 15900
